target: Ubiquitin carboxyl-terminal hydrolase isozyme L5 (Homo sapiens); assay: Inhibition of N-terminal His6-tagged recombinant human UCHL5 expressed in Escherichia coli BL21 (DE3) codon cells assessed as reduction in cleavage of Ubiquitin-Rhodamine110-glycine to Ubiquitin and Rhodamine110-glycine using Ub-Rho 110 as substrate incubated for 30 mins by fluorescence based assay
Sequence (Q9Y5K5 whole entry): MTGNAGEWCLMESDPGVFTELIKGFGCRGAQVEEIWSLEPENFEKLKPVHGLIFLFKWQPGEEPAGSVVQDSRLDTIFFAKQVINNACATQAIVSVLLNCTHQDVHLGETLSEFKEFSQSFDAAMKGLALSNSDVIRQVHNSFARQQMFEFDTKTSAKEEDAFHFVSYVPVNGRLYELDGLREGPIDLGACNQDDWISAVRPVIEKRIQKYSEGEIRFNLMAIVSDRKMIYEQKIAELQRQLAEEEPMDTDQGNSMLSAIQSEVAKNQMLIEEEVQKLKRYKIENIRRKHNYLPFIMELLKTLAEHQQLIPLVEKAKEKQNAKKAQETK
Measurement label: IC50 (µM)

Worked examples, 5 compounds total:
- Compound: "CC(=O)Nc1cccc(-c2cn(Cc3cc(C(=O)O)cc(-c4ccccc4C(=O)O)c3)nn2)c1"
  IC50 [µM]: 96.2
- Compound: "CC(C(=O)O)c1ccc(C(=O)c2ccccc2)s1 (stereo not drawn)"
  IC50 [µM]: 2950
- Compound: "NS(=O)(=O)Nc1ccc(-c2cn(Cc3cc(C(=O)O)cc(-c4ccccc4C(=O)O)c3)nn2)cc1"
  IC50 [µM]: 84.5
- Compound: "CC(=O)Nc1ccc(-c2cn(Cc3cc(C(=O)O)cc(-c4ccccc4C(=O)O)c3)nn2)cc1"
  IC50 [µM]: 80.9
- Compound: "O=C(O)c1cc(Cn2cc(-c3cccnc3)nn2)cc(-c2ccccc2C(=O)O)c1"
  IC50 [µM]: 252

a = CC(C(=O)O)c1ccc(C(=O)c2cccc(-c3occc3C(=O)O)c2)s1 (stereo not drawn)
b = Nc1ccc(-c2cn(Cc3cc(C(=O)O)cc(-c4ccc(C(=O)O)cc4)c3)nn2)cc1
Query: # return whichever of a and b has the smaller IC50 Please reply using the label of the selected record.
Result: a

P = CC(C(=O)O)c1ccc(C(=O)c2cccc(-c3ccccc3C(=O)O)c2)s1 (stereo not drawn)
Q = O=C(O)c1cc(Cn2cc(-c3ccc(NC(=O)c4ccccc4)cc3)nn2)cc(-c2ccccc2C(=O)O)c1
R = Nc1ccc(-c2cn(Cc3cc(C(=O)O)cc(-c4cccc(C(=O)O)c4)c3)nn2)cc1
Query: rank_up(items): orders items by reported IC50 in ascending numerical order. List the labels, following the order given in the request.
Result: R, P, Q

P = Nc1ccc(-c2cn(Cc3cc(C(=O)O)cc(-c4ccccc4C(=O)O)c3)nn2)cc1
Q = Nc1ccc(-c2cn(Cc3cccc(-c4ccccc4C(=O)O)c3)nn2)cc1
Query: Returns: the argument ( P or Q ) having the larger IC50. Please reply using the label of the selected record.
Result: Q

Cited source for all entries: ChEMBL document CHEMBL4680319
